target: DLG4_2, P78352; experiment: holdup assay; parameters: key: below the threshold = too weak to quantify, mostly under pKd 3.1 to 4; conditions: plain residues with an end cap or a label only (N-terminal biotin on a linker: ado-ado)
Sequence (P78352 155-259): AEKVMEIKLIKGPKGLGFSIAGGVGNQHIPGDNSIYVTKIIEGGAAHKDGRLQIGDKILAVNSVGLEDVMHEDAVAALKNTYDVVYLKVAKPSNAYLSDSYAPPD
reported property: pKd

binder: LAHVKHKEQI [AQP3, Q92482]
meas value: below the threshold

binder: AEASVACSLC [PTGIR, P43119]
meas value: below the threshold

binder: DDASLPVSDV [PLEKHA1, Q9HB21]
meas value: below the threshold
